Attribution: the supplement of paper PMC9170038

- System: K4 kissing-loop RNA reporter
- procedureText: apparent KD of K4 kissing-loop reporter; higher = weaker reporter binding
- condition: Eterna round: R107; input ligand: arginine 13.2 mM
Binary call on apparent KD of K4 kissing-loop reporter: class 1 from 200 nM upward, class 0 beneath that.

[
  {
    "residues": "AGACUACUGACAGGAUAUAACAUACUAGCUCGUAUACCAAAGGUAUACGAGCACCUUCUAGUGAUGUUAGAAGGGUCGGUAGUCA [Omei KL FMN B Exc B v2]",
    "classLabel": "class 1"
  },
  {
    "residues": "UGGGUGUAGUGAUGUUAUAUAGAGAAUGAUACCAGCUUAGAGAGGAGCCCUUGGCAGCGUAGACGAGUAUCAUUGGAGGAGGAGG [#22 K4 Theophylline A Exclusion]",
    "classLabel": "class 1"
  },
  {
    "residues": "CUAUAUAGUGAUGUUAUAUAGAUAACAGAUACCAGCUAGAAAACUAGCCCUUGGCAGCUGAUAAGGGAAAGUAUAAUUGUGUAAA [AstroSTH-A#DifdesignED20.18]",
    "classLabel": "class 0"
  },
  {
    "residues": "CCAUCGCUAUUCGAUACCAGUCAGGAGGUCUUUGGCCUCCUAUUGGAGUGAUGUUCCAUAGACCCUUGGCAGCGAAUAGUGAUGG [Theophylline B K4 15]",
    "classLabel": "class 1"
  }
]

====

Measured apparent KD of MS2 coat protein accompanies every entry in the list below.
- Test system: MS2 coat protein
- procedureText: apparent KD of MS2 coat protein; designed switch direction (-1 OFF switch, 1 ON switch): -1; higher = weaker reporter binding
- condition: input ligand: FMN 200 uM

[
  {
    "residues": "GUUUUCAGACGGAGAUCCUACAUGAGGAUCACCCAUGUCUCUCUUGUUUUUUGCUCGUCUUUUCCUCCUCUGUUCUC [Elimod 32 - Jieux - Sensor, turn-off variant 1] (Eterna round: R97, puzzle: Sensor, turn-off variant 1)",
    "apparent KD of MS2 coat protein, nM": 447
  },
  {
    "residues": "ACUGGAGCAGGAUAUAUAUGACGUGCUUCGGCACGAAGGUCACAUGAGGAUCACCCAUGUAGAAGGGCUCCAGU [E2/9-D1] (Eterna round: R97, puzzle: Exclusion 2)",
    "apparent KD of MS2 coat protein, nM": 225
  },
  {
    "residues": "UAUUUGCAAGCGAGAUCCCACAUGAGGAUCACCCAUGUUCUUGGAAAGUACAGAAUUACUGUACAAGCUCGUCUUCU [mod-Eli/newD-last] (Eterna round: R97, puzzle: Sensor, turn-off variant 1)",
    "apparent KD of MS2 coat protein, nM": 18.9
  },
  {
    "residues": "GGAGAGGUAGGAUAUCCACUUUAGAACAUGAGGAUCACCCAUGUAGAACCACAUGAAAUGGGAGAAGGACCAGGGA [AK-MS2ROC-r4-exclusion5-3] (Eterna round: R97, puzzle: Exclusion 5)",
    "apparent KD of MS2 coat protein, nM": 65.3
  }
]

====

- System: MS2 coat protein
- procedureText: apparent KD of MS2 coat protein; designed switch direction (-1 OFF switch, 1 ON switch): -1; higher = weaker reporter binding
- condition: Eterna round: R95; input ligand: none
List of apparent KD of MS2 coat protein values.

[
  {
    "residues": "UUAUUUCAAGCAAGAUCCUACAUGAGGAUCACCCAUGUGCUCGUCUUAUAAGGUACAGUGACGAAAGUCACAGUACC [Sensor 3, v1 - 000] (puzzle: Sensor v3, turn-off variant 1)",
    "apparent KD of MS2 coat protein (nM)": 202
  },
  {
    "residues": "GGCCCUAAGGUCAGAUCCACAAGCUUUUUGCUCGUUUUAACAUGAGGAUCACCCAUGUCUAGUGGAUCUGAUCCUCA [Sensor v3, turn-off variant 2 (MOD of Indiso v.3)] (puzzle: Sensor v3, turn-off variant 2)",
    "apparent KD of MS2 coat protein (nM)": 20.8
  }
]

====

Here, each record is paired with measured apparent KD of K4 kissing-loop reporter data.
- Test system: K4 kissing-loop RNA reporter;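 also: bound reporter read as fluorescence of individual clusters on recovered sequencing chips by microscopy, with normalized cluster intensities fitted with a binding model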
- procedureText: apparent KD of K4 kissing-loop reporter; higher = weaker reporter binding
- condition: Eterna round: R107; input ligand: tryptophan 2.4 mM

[
  {
    "residues": "CAAACGGGUUGGCUUGGAGACUGCAGACGCAAGGAUAUCGCGAAGACGAGAAGGUGCGGGCCUGGUAGUGAUGUUACAGUUUGGU [theeternabot_sameState_KL_FMN_A_21]",
    "unitsLabel": "nM",
    "apparent KD of K4 kissing-loop reporter": 254
  },
  {
    "residues": "UACUGGGCGAGUGAUGUUUGCUCAUGUGAUACCAGUGCCAUCCAACACCCUUGGCAGCAUGCGGGCAGUGAUGUUGUCCAUGGAA [Exclusion Theophylline A GF10]",
    "unitsLabel": "nM",
    "apparent KD of K4 kissing-loop reporter": 640
  },
  {
    "residues": "GGAUAGGACAGAGGAUAUGGACAGUCUACAAAGUAGGCUGAAAAUCCUUGAAUGGAAGUGAUGUUUCCAGAAGGCUGUCCUAUCG [FmnBX 20 - #SwitchBubble #StaticStem #Palindromic]",
    "unitsLabel": "nM",
    "apparent KD of K4 kissing-loop reporter": 150
  },
  {
    "residues": "UAUAGCGUCAGAAGGAGCGUGAGUAUAACAUGGCUGGAGUGAUGUUCCAGGAGUUAAUACUCACAGGUAGGUCGCUGACUCCUGG [Arg B SS t2]",
    "unitsLabel": "nM",
    "apparent KD of K4 kissing-loop reporter": 174
  },
  {
    "residues": "AAGCAGUCACUCGACGCCAUCGAAGAUGGGCGAGGACCGGUACGGCCGCCACUCGGAGUGAUGUUCUGAAGACUGCAAAAUAAAA [MatMod 7 - Jieux - Exclusion - Tryptophan A]",
    "unitsLabel": "nM",
    "apparent KD of K4 kissing-loop reporter": 160
  }
]

====

Known apparent KD of MS2 coat protein of a selection of sequences
- System: MS2 coat protein
- procedureText: apparent KD of MS2 coat protein; designed switch direction (-1 OFF switch, 1 ON switch): -1; higher = weaker reporter binding
- condition: input ligand: FMN 200 uM
measurementKind: apparent KD of MS2 coat protein

[
  {
    "residues": "AUCCUACAUGAGGAUCACCCAUGUCAGGAUAUCCAAGAAAUCUGGCCGUAUCGGCCAGGGAGAAGGGACAUGGC [jl-ex1-4.66 ViennaUCT mod] (Eterna round: R97, puzzle: Exclusion 1)",
    "measurementKind": "apparent KD of MS2 coat protein",
    "reportedMeasurement": "85.6 nM"
  },
  {
    "residues": "GUUUUCAGACGGAGAUCCUACAUGAGGAUCACCCAUGUCUCACUAGCUUUUUGCUCGUCUUAUCCUCCUCUGUUCUC [Elimod 28 - Jieux - Sensor, turn-off variant 1] (Eterna round: R97, puzzle: Sensor, turn-off variant 1)",
    "measurementKind": "apparent KD of MS2 coat protein",
    "reportedMeasurement": "336 nM"
  },
  {
    "residues": "ACAUGAGGAUCACCCAUGUUUGGCUGGUUUUCUCCGGCUGUCGAGGAUAUAGUCCGGUAUCCGCGCUAGAAGGUGAGGGCUGGC [Aenatbe mod 5] (Eterna round: R96, puzzle: Exclusion NG 3)",
    "measurementKind": "apparent KD of MS2 coat protein",
    "reportedMeasurement": "14.5 nM"
  },
  {
    "residues": "ACAAGUUUUUAGAUUCUUAACAUGAGGAUCACCCAUGUGCUCGUCUUGUUGGGCCCGGGCCCGCCGGGCCCGGGCCC (Eterna round: R97, puzzle: Sensor, turn-off variant 1)",
    "measurementKind": "apparent KD of MS2 coat protein",
    "reportedMeasurement": "60.5 nM"
  },
  {
    "residues": "GGUGGGCUAGGAUAUGCUUUGGGCAAGCAUUCCUUCGAUAAACUUGAGGAUCACCCAAGUAGAAGGAGCUUGCC [salish99_ex2_r4_026] (Eterna round: R97, puzzle: Exclusion 2)",
    "measurementKind": "apparent KD of MS2 coat protein",
    "reportedMeasurement": "11.5 nM"
  }
]
